# Tested on: Henosepilachna vigintioctopunctata
# test_method_notes: Antifeedant activity against adults of Henosepilachna vigintioctopunctata at 0.05 mg/cm'2 after 4 hr
# Type: functional

compound | target_or_system | Activity / %
C[C@@]12CCCC(CO)(CO)[C@H]1CC[C@H](CO)[C@H]2CCC1=CCOC1=O [WIGHTIONOLIDE] | Henosepilachna vigintioctopunctata | 18.42
CC(=O)OC[C@@]12[C@@H](OC(C)=O)C[C@@H](C)[C@](C)([C@@H]3C[C@H]4C=CO[C@H]4O3)[C@H]1CC[C@@H](OC(C)=O)[C@]21CO1 | Henosepilachna vigintioctopunctata | -5.31
CC(=O)OC[C@@]12C=C[C@@H](C)[C@](C)([C@@H]3C[C@H]4C(OC(C)=O)CO[C@H]4O3)[C@H]1CC[C@H](OC(C)=O)[C@]21CO1 (stereo partly specified) | Henosepilachna vigintioctopunctata | -20.26
CC(=O)OC[C@@]12[C@@H](OC(C)=O)C[C@@H](C)[C@](C)([C@@H]3C[C@H]4C=CO[C@H]4O3)[C@H]1CC[C@H](OC(C)=O)[C@]21CO1 [3-EPICARYOPTIN] | Henosepilachna vigintioctopunctata | 31.07
C=C1CC[C@@H]2[C@](C)(CO)[C@H](O)CC[C@@]2(C)[C@@H]1C/C=C1/C(=O)OC[C@H]1O [ANDROGRAPHOLIDE] | Henosepilachna vigintioctopunctata | -10.95
CC(=O)OC[C@@]12[C@@H](OC(C)=O)C[C@@H](C)[C@](C)([C@@H]3C[C@@H]4CCO[C@H]4O3)[C@H]1CC[C@H](OC(C)=O)[C@]21CO1 [14,15-DIHYDRO-3-EPICARYOPTIN] | Henosepilachna vigintioctopunctata | 10.2
